Values from patent US20240002387A1

# Assayed Target: BTK C481S (Homo sapiens (Human), UniProt Q06187, C481S)
# Sequence (Q06187 whole entry C481S): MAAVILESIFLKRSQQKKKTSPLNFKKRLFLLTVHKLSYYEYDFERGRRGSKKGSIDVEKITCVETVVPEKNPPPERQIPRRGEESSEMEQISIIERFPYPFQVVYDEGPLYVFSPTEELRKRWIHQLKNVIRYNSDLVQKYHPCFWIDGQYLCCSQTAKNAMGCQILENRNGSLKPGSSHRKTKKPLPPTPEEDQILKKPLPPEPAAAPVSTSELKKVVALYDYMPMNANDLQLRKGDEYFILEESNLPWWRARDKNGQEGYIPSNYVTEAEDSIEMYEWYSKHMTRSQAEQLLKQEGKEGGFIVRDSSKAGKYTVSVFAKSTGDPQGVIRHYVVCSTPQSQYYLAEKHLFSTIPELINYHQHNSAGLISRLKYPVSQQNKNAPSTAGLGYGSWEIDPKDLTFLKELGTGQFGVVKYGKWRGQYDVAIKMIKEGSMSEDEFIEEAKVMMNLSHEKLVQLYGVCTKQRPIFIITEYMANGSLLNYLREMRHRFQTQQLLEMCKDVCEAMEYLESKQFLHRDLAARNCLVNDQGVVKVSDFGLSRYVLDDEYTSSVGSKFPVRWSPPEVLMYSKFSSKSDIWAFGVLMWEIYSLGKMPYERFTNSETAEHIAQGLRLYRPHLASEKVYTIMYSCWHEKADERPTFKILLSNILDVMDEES
# Assay Method Text: In vitro kinase detection, BTK C481S
Quantity Measured: pIC50
Units for pIC50: none; it is -log10 of a concentration expressed in mol/L.

Query: Quick one: pIC50 of Nc1ncnc2c1c(-c1ccc(Oc3ccccc3)cc1)nn2C1CCN(C2CN(C3CN(c4ccc5c(c4)C(=O)N(C4CCC(=O)NC4=O)C5=O)C3)C2)CC1 (stereo not shown) [Compound 1] ?
Reply: 8.10
